# Corn plant response rating values compiled below
- System: corn
- ASSAY PROTOCOL: Test B pre-/postemergence herbicide test
- Type: in vivo, Zea mays
- PARTICULARS: Preemergence, 500 g ai/ha; scale 0 to 100
Respond with the number and no other words.

- STRUCTURE STRING: "CCn1nc(C(C)(C)C)cc1C(=O)Nc1cccc(C(=O)NC2CC2)c1"
  TESTED TARGET: "corn"
  Corn plant response rating: 0
- STRUCTURE STRING: "CCn1nc(C(C)(C)C)cc1C(=O)Nc1cc(C(=O)OC(C)(C)C)ccc1F"
  TESTED TARGET: "corn"
  Corn plant response rating: 0
- STRUCTURE STRING: "CCn1nc(C(C)(C)C)cc1C(=O)Nc1cccc(C(=O)NC(C)C)c1"
  TESTED TARGET: "corn"
  Corn plant response rating: 50
- STRUCTURE STRING: "CCn1nc(C(C)(C)C)cc1C(=O)Nc1cccc(C(=O)NCC2CC2)c1"
  TESTED TARGET: "corn"
  Corn plant response rating: 10

Test item `CCOC(=O)c1cc(NC(=O)c2cc(C(C)(C)C)nn2CC)ccc1F` ; corn; reported Corn plant response rating was 0
